Ref: the supplement of paper PMC11628255

# System: Renilla luciferase (RLuc)
# procedure_text: residual bioluminescent signal relative to negative (DMSO) control; higher = less interference (more residual luciferase signal)
# measurement_context: metal salt concentration 1 mM; HEPES conditions (100 mM HEPES, 0.05% BSA, 0.3 M sodium ascorbate, pH 7.5)
readout_kind: residual bioluminescent signal (%)
Kindly provide the numeric value in % only, without the unit symbol.

Some compounds with recorded residual bioluminescent signal:
For [Cl-].[Na+] [sodium chloride] , write its residual bioluminescent signal.
104

Indicate its recorded residual bioluminescent signal; the compound in question is [Cl][Fe]([Cl])[Cl] [iron(III) chloride]
2.32

Name the recorded residual bioluminescent signal of the compound listed here: O.O.O.O.O.O.O.O=S(=O)([O-])[O-].[Mg+2] [magnesium sulfate]
99.3

// Input: O=S(=O)([O-])[O-].[Fe+2] [iron(II) sulfate] . Output its residual bioluminescent signal only.
2.25

---
Determine its reported residual bioluminescent signal: O=S(=O)([O-])[O-].[Mn+2] [manganese(II) sulfate]
101

Provide residual bioluminescent signal value for the following compound: O=C([O-])[O-].[K+].[K+] [potassium carbonate]
93.2

---

# System: firefly luciferase (FLuc)
# procedure_text: residual bioluminescent signal relative to negative (DMSO) control; higher = less interference (more residual luciferase signal)
# measurement_context: metal salt concentration 1 mM; HEPES conditions (100 mM HEPES, 5 mM MgSO4, 10 uM ATP, pH 7.5)
Assign class by residual bioluminescent signal: not lower than 2% means T; lower than 2% means F.

Sample answers from the record:
Decide: residual bioluminescent signal of O.O.O.O.O.O.O.O=S(=O)([O-])[O-].[Mg+2] [magnesium sulfate] >= 2%?
T

Test whether the molecule [Cl][Fe][Cl] [iron(II) chloride] records residual bioluminescent signal of 2% or higher.
F

API: above_or_equal(metric=residual bioluminescent signal, cutoff=2%) for item O.O.O.O.O.O.O.O.O.O.O=S(=O)([O-])[O-].[Na+].[Na+] [sodium sulfate]
T

Evaluate CC#N.CC#N.CC#N.CC#N.F[B-](F)(F)F.[Cu+] [tetrakis(acetonitrile)copper(I) tetrafluoroborate] : residual bioluminescent signal at minimum 2%?
F

Kindly determine if residual bioluminescent signal recorded for O=C([O-])[O-].[K+].[K+] [potassium carbonate] is above or exactly 2%.
T

Further cases:
API: above_or_equal(metric=residual bioluminescent signal, cutoff=2%) for item O=S(=O)([O-])[O-].[Mn+2] [manganese(II) sulfate]
T

residual bioluminescent signal >= 2% for O=S(=O)([O-])[O-].[Fe+2] [iron(II) sulfate] ?
F

---

Reported residual bioluminescent signal by item:
# Test system: Renilla luciferase (RLuc)
# procedure_text: residual bioluminescent signal relative to negative (DMSO) control; higher = less interference (more residual luciferase signal)
# measurement_context: metal salt concentration 0.01 mM; HEPES conditions (100 mM HEPES, 0.05% BSA, 0.3 M sodium ascorbate, pH 7.5)
Number plus unit, in that order.

Some solved entries appear below for comparison.
# return residual bioluminescent signal for [Cl][Fe]([Cl])[Cl] [iron(III) chloride] , test system: Renilla luciferase (RLuc)
91.5%

Report residual bioluminescent signal on Renilla luciferase (RLuc) for this entry: O=C([O-])[O-].[K+].[K+] [potassium carbonate]
90.4%

Query molecule follows.
Write down the reported residual bioluminescent signal (system: Renilla luciferase (RLuc)) of O=C([O-])[O-].[Cs+].[Cs+] [caesium carbonate]
91.5%
